All figures here come from ChEMBL document CHEMBL4342502.

assay: Cytotoxicity against immortal human HaCaT cells assessed as reduction in cell viability at 50 ug/ml after 24 hrs by CCK-8 assay relative to control; assay type: cell-based; settings: read-out: INH
metric-name: cytotoxicity at 24 h, 50 ug/ml (%)

1) CC(C)(C(=O)N1CCN(Cc2ccc(Cl)cc2)CC1)S(=O)(=O)c1ccc(C(F)(F)F)cn1 = 50

* * *

experiment: Drug metabolism in human liver microsomes assessed as amount of drug modified at 1 ug/ml […] in presence of NADPH by LC-MS/MS analysis; format: ADME, Microsome; details: read-out: Drug metabolism
metric-name: metabolised at 10 min, 1 ug/ml (%)

1) CC(C)(C(=O)NCCOc1ccccc1)S(=O)(=O)c1ccc(C(F)(F)F)cn1 = 90
2) CC(C)(C(=O)NCCCc1ccccc1)S(=O)(=O)c1ccc(C(F)(F)F)cc1 = 90
3) CC(C)(C(=O)NCCOc1ccccc1)S(=O)(=O)c1ccc(C(F)(F)F)cc1 = 90
4) CC(C)(C(=O)N1CCN(c2ccc(Cl)c(Cl)c2)CC1)S(=O)(=O)c1ccc(C(F)(F)F)cn1 = 90
5) CC(C)(C(=O)N1CCN(Cc2ccc(Cl)cc2)CC1)S(=O)(=O)c1ccc(C(F)(F)F)cn1 = 90

* * *

experiment: Half life in human liver microsomes at 1 ug/ml measured up to 60 mins by LC-MS/MS analysis; type: ADME, Microsome; conditions: liver microsomes
metric-name: half-life at 1 ug/ml

1) CC(C)(C(=O)N1CCN(c2ccc(Cl)c(Cl)c2)CC1)S(=O)(=O)c1ccc(C(F)(F)F)cn1 = 6.25 min

* * *

biological target: ATP-dependent Clp protease proteolytic subunit (Escherichia coli (strain K12)) (UniProt P0A6G7); experiment: Activation of recombinant Escherichia coli ClpP assessed as induction of casein degradation at 0.1 to 1 uM using FITC-labelled casein as substrate pretreated with enzyme for 30 mins followed by substrate addition and measured every 3 mins for 3 hrs in absence of AAA+ chaperone by fluorescence based tecan-plate reader assay
Sequence (P0A6G7 whole entry): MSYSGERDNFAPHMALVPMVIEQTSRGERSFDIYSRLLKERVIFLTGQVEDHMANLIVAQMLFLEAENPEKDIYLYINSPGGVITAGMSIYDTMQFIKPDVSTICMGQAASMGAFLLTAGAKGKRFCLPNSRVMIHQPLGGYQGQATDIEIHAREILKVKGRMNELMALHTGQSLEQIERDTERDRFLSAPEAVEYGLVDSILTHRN
Active and inactive are the calls of the source. The calls are words filed in the database; no cut-off is given here.
Labels: true for active, false for inactive

1) CC(C)(C(=O)N1CCN(Cc2ccc(Cl)cc2)CC1)S(=O)(=O)c1ccc(C(F)(F)F)cn1 = true
2) CC(C)(C(=O)NCCCc1ccccc1)S(=O)(=O)c1ccccc1 = false
3) CC(C)(C(=O)NCCSc1ccc(Cl)cc1)S(=O)(=O)c1ccccc1 = false
4) CC(C)(C(=O)NCCSc1ccccc1Cl)S(=O)(=O)c1ccccc1 = false

* * *

system: HaCaT; assay: Cytotoxicity against immortal human HaCaT cells assessed as reduction in cell viability at 50 ug/ml after 24 hrs by CCK-8 assay; format: cell-based
metric-name: Activity

1) Cc1ccc(CN2CCN(C(=O)C(C)(C)S(=O)(=O)c3ccc(C(F)(F)F)cn3)CC2)cc1 = Non-Toxic
2) CC(C)(C(=O)NCCCc1ccccc1)S(=O)(=O)c1ccc(C(F)(F)F)cc1 = Toxic
3) CC(C)(C(=O)N1CCN(c2ccc(Cl)c(Cl)c2)CC1)S(=O)(=O)c1ccc(C(F)(F)F)cn1 = Non-Toxic
4) CC(C)(C(=O)NCCOc1ccccc1)S(=O)(=O)c1ccc(C(F)(F)F)cc1 = Non-Toxic

* * *

assay: Toxicity in Drosophila melanogaster assessed as survival rate at 0.25 to 1 mM; conditions: 1000 µM
metric-name: Activity

1) CC(C)(C(=O)N1CCN(Cc2cccc(Cl)c2)CC1)S(=O)(=O)c1ccc(C(F)(F)F)cn1 = Non-Toxic
2) CC(C)(C(=O)NCCCc1ccccc1)S(=O)(=O)c1ccc(C(F)(F)F)cc1 = Non-Toxic
3) CC(C)(C(=O)NCCOc1ccccc1)S(=O)(=O)c1ccc(C(F)(F)F)cc1 = Non-Toxic
4) CC(C)(C(=O)NCCSc1ccc(Cl)cc1)S(=O)(=O)c1ccc(C(F)(F)F)cn1 = Non-Toxic
5) CC(C)(C(=O)N1CCN(Cc2ccc(Cl)cc2)CC1)S(=O)(=O)c1ccc(C(F)(F)F)cn1 = Non-Toxic
6) CC(C)(C(=O)NCCOc1ccccc1Cl)S(=O)(=O)c1ccccc1 = Non-Toxic

* * *

test: Hepatic intrinsic clearance in human liver microsomes at 1 ug/ml measured per kg body weight up to 60 mins by LC-MS/MS analysis; format: ADME, Microsome; conditions: 1 h
Some compounds, each annotated with its measured CLH.
metric-name: CLH (L/h/kg)

1. CC(C)(C(=O)N1CCN(c2ccc(Cl)c(Cl)c2)CC1)S(=O)(=O)c1ccc(C(F)(F)F)cn1 = 52.4
2. CC(C)(C(=O)NCCOc1ccccc1)S(=O)(=O)c1ccc(C(F)(F)F)cn1 = 87.7
3. CC(C)(C(=O)NCCCc1ccccc1)S(=O)(=O)c1ccc(C(F)(F)F)cc1 = 53.4
4. CC(C)(C(=O)NCCOc1ccccc1)S(=O)(=O)c1ccc(C(F)(F)F)cc1 = 110

* * *

Some compounds, each annotated with its measured t1/2.
assay: Half life in human liver microsomes at 1 ug/ml measured up to 60 mins by LC-MS/MS analysis; format: ADME, Microsome; conditions: microsomes, 1 h
metric-name: t1/2 (min)

1. CC(C)(C(=O)NCCOc1ccccc1)S(=O)(=O)c1ccc(C(F)(F)F)cn1 = 3.73
2. CC(C)(C(=O)NCCOc1ccccc1)S(=O)(=O)c1ccc(C(F)(F)F)cc1 = 2.98
3. CC(C)(C(=O)NCCCc1ccccc1)S(=O)(=O)c1ccc(C(F)(F)F)cc1 = 6.13
